Test system: Zymosan-induced mechanical hyperalgesia
experiment summary: Zymosan-induced mechanical hyperalgesia (Randall-Selitto), inflammatory pain
Format: in vivo, rat
experimental conditions: Rattus norvegicus; oral, 30 min before zymosan; 4 hours after challenge; read-out: Analgesia ED50

# compound, result unit, ED50
records = [
    ("CS(=O)(=O)Nc1ccc([N+](=O)[O-])cc1Oc1ccccc1 [Nimesulide]", "mg/kg", 7.4),
    ("c1cn(-c2ccc3nc(-c4ccc5c(c4)OCO5)ncc3c2)cn1", "mg/kg", 2.8),
    ("Cc1ccc(-c2cc(C(F)(F)F)nn2-c2ccc(S(N)(=O)=O)cc2)cc1", "mg/kg", 9),
    ("c1ccc(-c2ncc3cc(-n4ccnc4)ccc3n2)cc1", "mg/kg", 6.5),
]
